- Target Desc: β-secretase (BACE) (Homo sapiens, UniProt P56817)
- Construct: purchased Panvera
- Sequence (P56817 46-501): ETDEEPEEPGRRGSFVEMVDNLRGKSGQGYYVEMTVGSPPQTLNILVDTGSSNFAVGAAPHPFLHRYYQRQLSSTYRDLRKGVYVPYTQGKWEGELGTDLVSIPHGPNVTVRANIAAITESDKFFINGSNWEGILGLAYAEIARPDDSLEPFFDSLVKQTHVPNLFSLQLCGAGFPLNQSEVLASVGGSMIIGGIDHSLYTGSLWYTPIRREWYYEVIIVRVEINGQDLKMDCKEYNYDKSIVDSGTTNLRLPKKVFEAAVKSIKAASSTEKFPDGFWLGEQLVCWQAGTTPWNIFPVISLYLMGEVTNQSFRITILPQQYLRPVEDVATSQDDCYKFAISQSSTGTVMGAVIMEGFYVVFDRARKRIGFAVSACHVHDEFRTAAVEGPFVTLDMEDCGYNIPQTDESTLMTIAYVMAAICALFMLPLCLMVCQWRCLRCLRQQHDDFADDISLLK
- Protocol Summary: BACE FS1 % Inhibition Assay
- Format: biochemical
- Condition: 1 μM test compound
Parameter: % Inhibition (FS). Scope: all listed entries.

Consider the following illustrative entries.
[[record]]
compound = "COc1cccc(OC)c1Oc1ccc2c(c1)CN(CCC(=O)NC1C3CC4CC(C3)CC1C4)C(N)=N2 (stereo not shown) [Compound 465]"
result = "<30%"

[[record]]
compound = "NC1=Nc2ccc(Oc3ccccc3)cc2CN1C(CC(=O)NC1C2CC3CC(C2)CC1C3)C1CCCCC1 (stereo not shown) [Compound 314]"
result = "45%"

[[record]]
compound = "NC1=Nc2ccc(Oc3ccccc3)cc2CN1Cc1cccc(C(=O)NC2CCCCC2)c1 [Compound 451]"
result = "<30%"

[[record]]
compound = "CC(=O)Nc1ccc(C(=O)NCCN2Cc3cc(-c4ccccc4)ccc3N=C2N)cc1 [Compound 591]"
result = "<30%"

[[record]]
compound = "CCCCCC(CCC(=O)NC1CCCCCC1)N1Cc2cc(Oc3ccccc3)ccc2N=C1N (stereo not shown) [Compound 150]"
result = "<30%"


Here is the next item to consider.
Reported % Inhibition (FS) (β-secretase (BACE) (Homo sapiens, UniProt P56817)) for entry NC1=Nc2ccc(Oc3ccccc3)cc2CN1C1CCN(C(=O)C23CC4CC(CC(C4)C2)C3)CC1 [Compound 524] is <30%

---

- Target Desc: β-secretase (BACE) (Homo sapiens)
- Construct: purchased Panvera
- Protocol Summary: BACE FS1 % Inhibition Assay
- Format: biochemical
- Condition: 3 μM test compound
Parameter: % Inhibition (FS). Scope: all listed entries.

Consider the following illustrative entries.
[[record]]
entry_smiles = "CN(CCN1Cc2cc(Oc3ccccc3)ccc2N=C1N)C1CCCCC1"
observable = "% Inhibition (FS)"
result = "<30%"

[[record]]
entry_smiles = "CC(C)Oc1ccc2c(c1)CN(Cc1cccc(C(=O)N(C)C3CCCCC3)c1)C(N)=N2"
observable = "% Inhibition (FS)"
result = "<30%"


Here is the next item to consider.
compound Cc1cc(C(=O)NCCN2Cc3cc(-c4cccc(C(F)(F)F)c4)ccc3N=C2N)c(C)o1 , % Inhibition (FS) observed: <30%

---

- Target Desc: β-secretase (BACE) (Homo sapiens)
- Construct: purchased Panvera
- Protocol Summary: BACE FS1 % Inhibition Assay
- Format: biochemical
- Condition: 3 μM compound; FS1 substrate
Observable: % Inhibition (FS) (%)

Consider the following illustrative entries.
[[record]]
molecule = "NC1=Nc2ccc(-c3ccccc3F)cc2CN1CCNC(=O)C1CCC(C(F)(F)F)CC1 (stereo not shown) [Compound 688]"
quantitative_result = 81

[[record]]
molecule = "COc1cccc(F)c1-c1ccc2c(c1)CN(CCNC(=O)C1CCC(C(F)(F)F)CC1)C(N)=N2 (stereo not shown) [Compound 700]"
quantitative_result = 85

[[record]]
molecule = "NC1=Nc2ccc(-c3ccccc3F)cc2CN1CCNC(=O)CCC(F)(F)F [Compound 680]"
quantitative_result = 90

[[record]]
molecule = "Cc1ccccc1-c1ccc2c(c1)CN(CCNC(=O)CCC(F)(F)F)C(N)=N2 [Compound 678]"
quantitative_result = 99

[[record]]
molecule = "CN(C(=O)CC[C@@H](C1CCCCC1)N1Cc2ccc(Oc3ccccc3)cc2N=C1N)C1CCCCC1 [Compound 754]"
quantitative_result = 89


1. NC1=Nc2ccc(-c3ccccc3F)cc2CN1CCNC(=O)C1CCOCC1 [Compound 687]
2. NC1=Nc2ccc(-c3cnc4ccccc4c3)cc2CN1CCNC(=O)C1CCC1 [Compound 670]
Q: Look at 1 and 2 . Which one has the lower recorded % Inhibition (FS) number? Pick one; state its label.
Result: 2
